Would you mind telling me the reported pEC50 of each entry?
# System: CEM cells HIV-1 protection, formazan growth assay
# experiment-notes: NCI AIDS Antiviral Assay
# Experimental: The ability of compounds to protect human CEM cells from HIV-1 infection is measured as a screen for new compounds capable of inhibiting the HIV virus. Five concentrations of drug were tested on uninfected and infected cells and cell growth was measured using a soluble formazan assay. […] Compounds that provided at least 50% protection were retested. Compounds that provided at least 50% protection on retest were listed as moderately active. […]
pEC50: −log10 of the molar value. Where a SMILES comes first, the peptide text is derived from it. [ ]: non-standard residue; d: D form. The star is where a group is joined. ξ: configuration not given here. Ac5c = NC1(C(=O)O)CCCC1; Cbz = O=C(OCc1ccccc1)*; Boc = CC(C)(C)OC(=O)*; ξV = CC(C)C(N)C(=O)O; OBn = c1ccc(CO*)cc1; tBu = CC(C)(C)*

Measured pEC50 for this entry O=[N+]([O-])C(=C/c1cccc2ccccc12)/C(=C\c1cccc2ccccc12)[N+](=O)[O-] on CEM cells HIV-1 protection, formazan growth assay: < 4.70

Measured pEC50 for this entry COc1ccc2c(c1)CCc1c-2n(CCN2CCOCC2)c2ccc(OC)cc12 on CEM cells HIV-1 protection, formazan growth assay: < 3.70

Measured pEC50 for this entry CC1(C)OC(=S)N(c2ccccc2)C12C=Cc1cc3ccccc3nc1S2 (centres undefined) on CEM cells HIV-1 protection, formazan growth assay: < 5.43

Measured pEC50 for this entry OC[C@@H](O)[C@H](O)[C@H](O)[C@@H](O)C1SCCCS1 on CEM cells HIV-1 protection, formazan growth assay: < 3.70

Measured pEC50 for this entry O=C1CCC2(CC1CCS(=O)c1ccccc1)OCCO2 (centres undefined) on CEM cells HIV-1 protection, formazan growth assay: < 3.70

Measured pEC50 for this entry Oc1ccc(-c2nc(-c3ccc(F)cc3)c(-c3ccc4ccccc4n3)[nH]2)cc1 on CEM cells HIV-1 protection, formazan growth assay: < 3.70

Measured pEC50 for this entry COc1ccc(C2c3cn[nH]c3CC3CCCCC32)cc1 (centres undefined) on CEM cells HIV-1 protection, formazan growth assay: < 3.70

Measured pEC50 for this entry CC(=O)OCC1Cn2c(c(-c3ccccc3)c(=O)[nH]c2=S)O1 (centres undefined) on CEM cells HIV-1 protection, formazan growth assay: < 3.22

Measured pEC50 for this entry CNC1(C#N)CCN(Cc2ccccc2)CC1 on CEM cells HIV-1 protection, formazan growth assay: < 3.70

Measured pEC50 for this entry O=C(OC1=C(OC(=O)c2ccc(N=Nc3ccccc3)cc2)c2ccccc21)c1ccc(N=Nc2ccccc2)cc1 on CEM cells HIV-1 protection, formazan growth assay: < 3.70

Measured pEC50 for this entry COc1cccc(/C=C/C(=O)C(C)(C)C)c1 on CEM cells HIV-1 protection, formazan growth assay: < 4.62

Measured pEC50 for this entry O=C(c1ccccc1)C1(C(=O)c2ccccc2)/C(=N\O)C2CCC1C2 (centres undefined) on CEM cells HIV-1 protection, formazan growth assay: < 4.27

Measured pEC50 for this entry CC(C)C(NC(=O)OC(C)(C)C)C(=O)NCC(=O)OCc1ccccc1 (centres undefined) (Boc-[ξV]-Gly-OBn) on CEM cells HIV-1 protection, formazan growth assay: < 3.70

Measured pEC50 for this entry O=C(O)CCC(NC(=O)c1ccc(Nc2cnc3ccc(C(F)(F)F)cc3n2)cc1)C(=O)O (centres undefined) on CEM cells HIV-1 protection, formazan growth assay: < 3.70

Measured pEC50 for this entry Nc1ccc2oc3cccc(N)c3c(=O)c2c1 on CEM cells HIV-1 protection, formazan growth assay: < 4.64

Measured pEC50 for this entry CN(C)CCCNC(=O)c1cc(NC(=O)c2cc(NC(=O)c3cc(NC(=O)c4ccc(C(=O)Nc5cc(C(=O)Nc6cc(C(=O)Nc7cc(C(=O)NCCCN(C)C)n(C)c7)n(C)c6)n(C)c5)nc4)cn3C)cn2C)cn1C on CEM cells HIV-1 protection, formazan growth assay: 5.27

Measured pEC50 for this entry COC(=O)C1(NC(=O)C(Cc2ccccc2)NC(=O)C(NC(=O)C(CCCCNC(=O)OC(C)(C)C)NC(=O)C(Cc2c[nH]c3ccccc23)NC(=O)C(Cc2ccccc2)NC(=O)OCc2ccccc2)C(C)OC(C)(C)C)CCCC1 (centres undefined) (Cbz-FWK(Boc)T(tBu)F[Ac5c]-OMe; configuration not given here) on CEM cells HIV-1 protection, formazan growth assay: < 3.70

Measured pEC50 for this entry O=c1c(/C=N/OCCCCO/N=C/c2cc3c(cc2[N+](=O)[O-])OCO3)coc2c(Cl)cc(Cl)cc12 on CEM cells HIV-1 protection, formazan growth assay: < 3.70

Measured pEC50 for this entry Cc1cc(Cl)cc2c1S/C(=C1\Sc3c(C)cc(Cl)cc3C1=O)C2=O on CEM cells HIV-1 protection, formazan growth assay: < 3.70

Measured pEC50 for this entry CC1=C(O[Si](C(C)C)(C(C)C)C(C)C)C2CC1[C@@H]1C(=O)N(c3ccccc3)C(=O)[C@H]21 (some centres undefined) on CEM cells HIV-1 protection, formazan growth assay: < 5.19

Measured pEC50 for this entry Clc1ccc(Oc2ccc(N=Cc3ccc(Cl)cc3Cl)cc2Cl)cc1 on CEM cells HIV-1 protection, formazan growth assay: < 3.70

Measured pEC50 for this entry c1cc(-c2ccc(-c3ccc(-c4ccc(-c5cccc6nsnc56)[nH]4)c4nsnc34)[nH]2)c2nsnc2c1 on CEM cells HIV-1 protection, formazan growth assay: < 4.00

Measured pEC50 for this entry Cc1cc(OC(=O)NCn2cc(-c3ccccc3)nn2)ccc1Cl on CEM cells HIV-1 protection, formazan growth assay: < 3.70

Measured pEC50 for this entry CCOC(=O)C1CC2OC2CC1C(=O)OCC (centres undefined) on CEM cells HIV-1 protection, formazan growth assay: < 3.70

Measured pEC50 for this entry CC1(Cl)CC2C(CC1Sc1nnnn1-c1ccccc1)C2(C)C (centres undefined) on CEM cells HIV-1 protection, formazan growth assay: < 4.68

Measured pEC50 for this entry NC(=O)N/N=C/c1ccc(Cl)cc1 on CEM cells HIV-1 protection, formazan growth assay: < 3.88

Measured pEC50 for this entry Clc1ccccc1/C=C1\c2ccccc2-c2nc3ccccc3nc21 on CEM cells HIV-1 protection, formazan growth assay: < 3.70

Measured pEC50 for this entry CC1(C)COC2(OC1)C1=NS(=O)(=O)CC13CCC2C3(C)C (centres undefined) on CEM cells HIV-1 protection, formazan growth assay: < 4.24

Measured pEC50 for this entry CS(=O)(=O)OCCCCOS(C)(=O)=O on CEM cells HIV-1 protection, formazan growth assay: < 3.69

Measured pEC50 for this entry CN(CO)c1nc(N(C)CO)nc(N(C)CO)n1 on CEM cells HIV-1 protection, formazan growth assay: < 4.58

Measured pEC50 for this entry CCOC(=O)NC(NC1=NCCS1)(C(=O)OCC)C(F)(F)F (centres undefined) on CEM cells HIV-1 protection, formazan growth assay: < 3.70

Measured pEC50 for this entry CC(=O)OCC1OC(Sc2nc(-c3ccc(Cl)cc3)c(C#N)c(=O)n2C2OC(COC(C)=O)C(OC(C)=O)C(OC(C)=O)C2OC(C)=O)C(OC(C)=O)C(OC(C)=O)C1OC(C)=O (centres undefined) on CEM cells HIV-1 protection, formazan growth assay: < 4.00

Measured pEC50 for this entry O=C1C2=C(SCCS2)C(=O)c2c(Sc3ccc(Cl)cc3)c(Sc3ccc(Cl)cc3)c(Sc3ccc(Cl)cc3)c(Sc3ccc(Cl)cc3)c21 on CEM cells HIV-1 protection, formazan growth assay: < 3.82

Measured pEC50 for this entry COc1ccc2c(=O)c(-c3ccc(OC)c(OC)c3)c(C)oc2c1 on CEM cells HIV-1 protection, formazan growth assay: < 3.70

Measured pEC50 for this entry COc1ccc(/C=C(\C#N)c2ccccc2)cc1OC on CEM cells HIV-1 protection, formazan growth assay: < 4.15

Measured pEC50 for this entry CCOC(=O)/C(C#N)=C/c1coc2cc(C)cc(C)c2c1=O on CEM cells HIV-1 protection, formazan growth assay: < 3.70

Measured pEC50 for this entry CCCCCCCCCCCCCCCCCC(=O)OCC1OC(OC)C(NC(=O)N(CCCl)N=O)C(O)C1O (centres undefined) on CEM cells HIV-1 protection, formazan growth assay: < 5.06

Measured pEC50 for this entry CC(=O)c1cccc(NC(=O)Nc2cccc(C)n2)c1 on CEM cells HIV-1 protection, formazan growth assay: < 4.25

Measured pEC50 for this entry COP(=O)(OC)C1=c2c(C)noc2=C2C=COC2C1=O (centres undefined) on CEM cells HIV-1 protection, formazan growth assay: < 3.70
